Recorded NADPH fluorescence slope, one value per entry.
- Target desc: Voltage-gated potassium channel subunit beta-2 (Rattus norvegicus) (UniProt P62483)
- Sequence (P62483 whole entry, looked up): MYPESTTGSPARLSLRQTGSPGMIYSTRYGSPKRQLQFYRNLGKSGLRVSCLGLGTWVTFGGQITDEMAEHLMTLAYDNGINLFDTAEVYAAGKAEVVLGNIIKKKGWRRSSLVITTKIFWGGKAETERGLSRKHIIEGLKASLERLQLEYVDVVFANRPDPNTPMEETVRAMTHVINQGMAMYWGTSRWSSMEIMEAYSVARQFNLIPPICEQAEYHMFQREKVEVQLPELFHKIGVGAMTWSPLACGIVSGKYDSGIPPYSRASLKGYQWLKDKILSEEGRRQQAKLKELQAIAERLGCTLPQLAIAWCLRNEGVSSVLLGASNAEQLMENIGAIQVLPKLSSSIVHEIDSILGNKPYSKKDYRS
- Protocol: enhancers of rat Kvbeta2 NADPH turnover – biochemical, NADPH fluorescence, primary screen (AID 623);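 further: fluorescence intensity change per second fitted from 20 to 320 s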
- Assay context: Recombinant KvBeta, NADPH fluorescence decrease slope, 10 min; at 10 µM; hits give low values
Lab note: jot down the number only; don't add units.

The examples below pair each entry with its known result.
# Molecule, Value measured
records = [
    ("CCN(CC)CCCNC(=O)c1c(O)c2ccccc2n(Cc2ccccc2)c1=O", "-6.7e-06"),
    ("CCOc1cccc(N2C(=O)CC(=O)NC2=O)c1", "-1.6e-06"),
    ("O=C(NCc1ccccn1)c1ccccc1Cl", "-5.9e-05"),
    ("CC1(C)NCCN2C(=O)CSC21 (configuration not stated)", "-5.8e-05"),
    ("O=c1[nH]c2ccccc2n1CCCN1CCC(n2c(=O)[nH]c3cc(Cl)ccc32)CC1", "-4.5e-05"),
    ("CC(=O)OC1N=C(c2ccccc2)c2ccccc2NC1=O (configuration not stated)", "-5.2e-06"),
    ("O=C1CC(N2CCC(n3c(=O)[nH]c4ccccc43)CC2)C(=O)N1c1ccc(F)cc1 (configuration not stated)", "1.5e-05"),
    ("Cc1ccccc1NC1=NCCCS1", "-3.1e-05"),
]

Q. Given COc1ccc(CC[n+]2cc(/N=C(\C)[O-])on2)cc1OC , state its recorded NADPH fluorescence slope.
A. 6e-06

Q. Given CCc1ccc(OCCCN=C(C)c2c(O)n(C)c(=O)n(C)c2=O)cc1 , state its recorded NADPH fluorescence slope.
A. 2.2e-06

Q. Given NCC1(c2ccc3c(c2)OCCO3)CCCC1 , state its recorded NADPH fluorescence slope.
A. -2.2e-05

Q. Given C[N+]1(C)CCN(c2ccccc2)CC1 , state its recorded NADPH fluorescence slope.
A. -4.1e-05

---

- Protocol: loss of swimming-algae plug formation – whole organism, Chlamydomonas reinhardtii, WT vs cilia-less mutant, absorbance, 96-well, primary screen (AID 463189);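 further: 0% = wild type cc124 cells in DMSO and 100% = ciliumless bld1 mutant cells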
- Assay context: Chlamydomonas reinhardtii gravitaxis, OD600 absorbance, 2 days; at 10 µM; hits give high values
Reported endpoint: inhibition (%)
Please respond with the number in % and leave the unit unwritten.

The examples below pair each entry with its known result.
# Molecule, Readout unit, inhibition
rows = [
    ("Cc1nccc2c1[nH]c1ccccc12", "%", 10.4),
    ("CCOC(=O)C1=C(C)OC(N)=C(C(=O)OCC)[C@@]12C(=O)N(CC(N)=O)c1ccccc12", "%", 5.83),
    ("CCN(CC)c1ccc(N=Cc2c(O)n(-c3cc(OC)ccc3OC)c(=O)[nH]c2=O)cc1", "%", 34.9),
    ("O=c1c(C=NCCN2CCNCC2)c(O)n(C2CCCCC2)c(=O)n1C1CCCCC1", "%", 2.5),
    ("CC1=NN=C(c2ccc(N)cc2)c2cc3c(cc2C1)OCO3", "%", -2.8),
    ("CCCCCCC(C)(C)c1ccc([C@@H]2C[C@H](O)CC[C@H]2CCCO)c(O)c1", "%", -3.04),
]

Q. Given Fc1ccc(C(OCCN2CCN(CCCc3ccccc3)CC2)c2ccc(F)cc2)cc1 , state its recorded inhibition.
A. 12.7

Q. Given CCCC[N+]1(C)C2CC(OC(=O)[C@H](CO)c3ccccc3)CC1C1OC12 (stereo partly drawn) , state its recorded inhibition.
A. -7.48
